# system-under-test: Macrophage-stimulating protein receptor (Homo sapiens) (UniProt Q04912)
# Sequence (Q04912 25-304 limits assumed): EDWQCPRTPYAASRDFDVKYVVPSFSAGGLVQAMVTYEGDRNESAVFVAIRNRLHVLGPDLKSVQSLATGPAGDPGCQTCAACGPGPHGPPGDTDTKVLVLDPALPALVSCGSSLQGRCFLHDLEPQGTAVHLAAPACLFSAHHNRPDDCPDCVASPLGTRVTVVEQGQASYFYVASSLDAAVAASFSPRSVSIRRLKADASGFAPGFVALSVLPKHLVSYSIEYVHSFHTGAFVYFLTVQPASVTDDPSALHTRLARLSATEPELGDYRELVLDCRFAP
# Sequence (Q04912 310-1400 limits assumed): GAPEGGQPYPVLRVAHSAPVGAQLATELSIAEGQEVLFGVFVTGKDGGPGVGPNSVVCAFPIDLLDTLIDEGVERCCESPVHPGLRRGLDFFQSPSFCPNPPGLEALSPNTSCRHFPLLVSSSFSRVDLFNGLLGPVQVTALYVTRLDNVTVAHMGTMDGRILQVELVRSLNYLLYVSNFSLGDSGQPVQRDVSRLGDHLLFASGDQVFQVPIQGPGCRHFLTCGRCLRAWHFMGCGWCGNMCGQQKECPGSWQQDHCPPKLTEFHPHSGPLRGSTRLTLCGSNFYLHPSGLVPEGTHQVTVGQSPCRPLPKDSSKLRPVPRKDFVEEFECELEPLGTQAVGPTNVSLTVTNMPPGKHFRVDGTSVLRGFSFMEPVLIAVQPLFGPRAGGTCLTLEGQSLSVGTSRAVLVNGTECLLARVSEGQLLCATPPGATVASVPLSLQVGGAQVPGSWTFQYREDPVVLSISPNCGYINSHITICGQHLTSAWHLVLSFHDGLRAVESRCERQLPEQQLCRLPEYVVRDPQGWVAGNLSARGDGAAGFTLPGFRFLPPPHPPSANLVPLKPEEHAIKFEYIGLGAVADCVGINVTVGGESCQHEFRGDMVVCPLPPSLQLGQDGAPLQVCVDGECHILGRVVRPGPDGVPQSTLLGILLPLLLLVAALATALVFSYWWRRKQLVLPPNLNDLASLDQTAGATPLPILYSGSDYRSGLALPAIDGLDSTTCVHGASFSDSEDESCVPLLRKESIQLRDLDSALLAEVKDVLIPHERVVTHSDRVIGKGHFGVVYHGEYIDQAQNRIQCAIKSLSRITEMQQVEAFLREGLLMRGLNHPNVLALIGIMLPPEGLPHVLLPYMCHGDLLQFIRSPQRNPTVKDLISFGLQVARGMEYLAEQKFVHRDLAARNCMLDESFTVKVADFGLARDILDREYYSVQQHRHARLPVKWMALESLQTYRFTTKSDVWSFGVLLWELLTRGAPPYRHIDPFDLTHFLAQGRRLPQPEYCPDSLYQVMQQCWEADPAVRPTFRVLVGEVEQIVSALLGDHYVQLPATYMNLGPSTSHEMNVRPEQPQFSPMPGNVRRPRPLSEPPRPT
# run-parameters: at 1 µM
# Description: GSK_PKIS: RON mean inhibition at 1 uM [Nanosyn]
measured-attribute: inhibition
The reply must contain the numeric value and, after it, the unit.

Look over these answered cases.
Cc1cc(O)cc(C)c1/C=C/c1cncc(C(N)=O)c1: 4.46%
CS(=O)(=O)CCNCc1ccc(-c2ccc3ncnc(Nc4ccc(OCc5ccccc5)cc4)c3c2)o1: 3.8%

Could you tell me inhibition for each of these compounds? They are listed below.
1. Cc1nnc(-c2cccc(-c3ccc(C(=O)NCC4CC4)cc3)c2)o1
2. NC(=O)c1ccc2c(-c3ccnc(NCCCO)n3)c(-c3ccc(F)cc3)nn2c1
3. NS(=O)(=O)c1cccc(N/C=C2\C(=O)Nc3ccccc32)c1
4. CCS(=O)(=O)c1ccc(OC)c(Nc2ncc(-c3cccc(C(C)=O)c3)o2)c1
5. CNC(=O)c1ncccc1Nc1nc(Nc2cc3c(cc2OC)CCCN3C(=O)CN(C)C)nc2[nH]ccc12
6. CS(=O)(=O)Nc1ccc(-c2ccc3c(NC(=O)C4CC4)n[nH]c3c2)cc1

-- reply
1. 8.29%
2. 9.13%
3. 7.57%
4. 3.79%
5. 6.45%
6. 7.91%

Could you tell me inhibition for each of these compounds? They are listed below.
1. N#Cc1ccc2c(-c3ccnc(NC4CC4)n3)c(-c3ccc(F)cc3)nn2c1
2. NS(=O)(=O)c1ccc(N/N=C2\C(=O)Nc3cccc(CCc4ccncc4)c32)cc1
3. FC(F)(F)CNc1nccc(-c2cnn3ncccc23)n1

-- reply
0.41%
5.76%
-1.8%
